The reader will find reported EC50 values listed item by item below.
- measurement.target: full-length beta-catenin (Axin site) (Homo sapiens)
- Construct: 15 nM full-length beta-catenin, 20 nM FITC labeled peptide in buffer
- Sequence (P35222 1-781): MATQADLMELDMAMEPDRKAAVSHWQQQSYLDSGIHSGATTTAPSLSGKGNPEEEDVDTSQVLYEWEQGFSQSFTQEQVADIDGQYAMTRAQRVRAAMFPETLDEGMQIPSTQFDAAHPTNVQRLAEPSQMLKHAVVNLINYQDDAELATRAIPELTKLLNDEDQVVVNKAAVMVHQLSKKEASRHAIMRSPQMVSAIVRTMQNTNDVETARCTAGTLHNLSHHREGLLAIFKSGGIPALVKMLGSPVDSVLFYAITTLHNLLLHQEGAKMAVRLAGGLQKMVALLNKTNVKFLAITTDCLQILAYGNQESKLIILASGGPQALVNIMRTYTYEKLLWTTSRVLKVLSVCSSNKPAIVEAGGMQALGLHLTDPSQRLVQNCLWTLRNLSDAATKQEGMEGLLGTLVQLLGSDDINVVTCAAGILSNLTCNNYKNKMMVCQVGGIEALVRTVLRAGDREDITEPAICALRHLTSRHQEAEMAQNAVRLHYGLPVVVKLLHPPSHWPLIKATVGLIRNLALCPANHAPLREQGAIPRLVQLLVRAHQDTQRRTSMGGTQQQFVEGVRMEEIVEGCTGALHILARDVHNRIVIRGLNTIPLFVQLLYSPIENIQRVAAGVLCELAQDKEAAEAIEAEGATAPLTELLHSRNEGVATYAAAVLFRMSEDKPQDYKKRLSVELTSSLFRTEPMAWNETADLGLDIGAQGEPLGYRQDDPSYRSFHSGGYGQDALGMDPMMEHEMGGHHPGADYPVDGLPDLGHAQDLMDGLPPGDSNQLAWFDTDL
- protocol.notes: Competition fluorescence polarization assay (Axin site probe)
- Type: binding
- study.conditions: competition fluorescence polarization, Table 2; read-out: in vitro FP EC50
Numbered stars: 1 amine (or outer) side, 2 acyl side, 3 side chain; on linkers, the order of the positions; unused ones are H or OH. Bridge positions count the residues as written; N and C are the ends. Square brackets hold non-standard residues; d marks the D form. Peptide text beside a SMILES is read from it. X8 = CN(CC=[*:3])CCC[C@](C)(N[*:1])C(=O)[*:2]; R5 = C=CCCC[C@@](C)(N)C(=O)O
measurement.type: EC50

[[record]]
molecule = "CC[C@H](C)[C@@H]1NC(=O)[C@](C)(NC(=O)[C@H](CCC(N)=O)NC(=O)[C@@H]2CCCN2C(C)=O)CCCC=CCOC(=O)N2CC[C@@](C(=O)N[C@@H](Cc3c[nH]cn3)C(=O)N[C@H](C(=O)N[C@@H](CCCNC(=N)N)C(=O)N[C@@H](CCCNC(=N)N)C(=O)N[C@H](C(=O)N[C@@H](Cc3c[nH]c4ccccc34)C(=O)N[C@@H](CCCNC(=N)N)C(N)=O)C(C)C)C(C)C)(C2)NC(=O)[C@H](CC(=O)O)NC(=O)[C@H](CC(C)C)NC1=O (single isomer, unassigned) [FP0758c, Ac-P-Q-R5-I-L-D-MB-H-V-R-R-V-W-R-NH2]"
measurement_target = "full-length beta-catenin (Axin site) (Homo sapiens)"
assay_value = "0.5 to 5 µM"

[[record]]
molecule = "CC[C@H](C)[C@@H]1NC(=O)[C@H](Cc2c[nH]cn2)NC(=O)[C@H](C)NC(=O)[C@H](CC(=O)O)NC(=O)[C@H](CC(C)C)NC(=O)[C@H]([C@@H](C)CC)NC(=O)[C@](C)(NC(=O)[C@H](C)NC(C)=O)CCCC=CCN(C)CCC[C@@](C)(C(=O)N[C@@H](CCCNC(=N)N)C(=O)N[C@H](C(=O)N[C@@H](Cc2c[nH]c3ccccc23)C(N)=O)C(C)C)NC1=O [FP0510a, Ac-A-R5-I-L-D-A-H-I-MH-R-V-W-NH2] (Ac-A[R5]ILDAHI[X8]RVW-NH2; staple 2-9)"
measurement_target = "full-length beta-catenin (Axin site) (Homo sapiens)"
assay_value = "0.5 to 5 µM"

[[record]]
molecule = "CC[C@H](C)[C@@H]1NC(=O)[C@H](Cc2ccccn2)NC(=O)[C@H](C)NC(=O)[C@H](CC(=O)O)NC(=O)[C@H](CC(C)C)NC(=O)[C@H]([C@@H](C)CC)NC(=O)[C@](C)(NC(=O)[C@H](C)NC(C)=O)CCCCCCC=CCOC(=O)N2CC[C@@](C(=O)N[C@@H](CC(N)=O)C(=O)N[C@H](C(=O)N[C@@H](Cc3c[nH]c4ccccc34)C(N)=O)C(C)C)(C2)NC1=O (single isomer, unassigned) [FP0558c Isomer 2, Ac-A-R8-I-L-D-A-2pyr-I-MB-N-V-W-NH2]"
measurement_target = "full-length beta-catenin (Axin site) (Homo sapiens)"
assay_value = "> 5 µM"

[[record]]
molecule = "CC[C@H](C)[C@@H]1NC(=O)[C@H](Cc2ccccn2)NC(=O)[C@H](C)NC(=O)[C@H](CC(=O)O)NC(=O)[C@H](CC(C)C)NC(=O)[C@H]([C@@H](C)CC)NC(=O)[C@](C)(NC(=O)[C@H](C)NC(C)=O)CCCCCCC=CCOC(=O)N2CC[C@@](C(=O)N[C@@H](Cc3ccco3)C(=O)N[C@H](C(=O)N[C@@H](Cc3c[nH]c4ccccc34)C(N)=O)C(C)C)(C2)NC1=O (single isomer, unassigned) [FP0569c Isomer 1, Ac-A-R8-I-L-D-A-2pyr-I-MB-fur-V-W-NH2]"
measurement_target = "full-length beta-catenin (Axin site) (Homo sapiens)"
assay_value = "> 5 µM"

